Entries and their kon
# EXPERIMENTAL TARGET: T1, Recombinant human CD4 (R&D Systems, Cat. 10327-CD) (human, UniProt P01730 26-390, limits assumed)
# T1 construct: Bought reagent; also called huCD4
# TEST: BLI Octet, non-clonal supernatant on AMC sensor, 100 nM human CD4, 1:1 local fit;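 note: Single-concentration kinetics per supernatant, with the 1:1 model fitted across both the association and dissociation phases of the sensorgram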
# unit: M⁻¹ s⁻¹ | format: bare number

Use the examples below as a reference point.
BINDER: 75110_01A06A (antibody, V domains shown, Tested as non-clonal AlivaMab Mouse Kappa hybridoma supernatant, captured by anti-mouse IgG Fc sensor) VH: EVQLVESGGGLVQPGGSLRLSCAASGFTFSSYWMSWVRQAPGKGLEWVANINEDGNEKYYVDSVKGRLTISRDNAKNSLYLQMNSLRAEDTAVYFCAREGGQWLSLDYWGQGALVTVSS VL: DIQMTQSPSSVSASVGDRVSITCRASQGISSWLAWYQQKPGKAPKILIYGASSLQSGVPSRFSGSGSGTDFTLTISSLQPEDFATYYCQQANSFPWTFGQGTKVEIK
kon / M⁻¹ s⁻¹: 120000

BINDER: 75110_12H19A (antibody, V domains shown, Tested as non-clonal AlivaMab Mouse Kappa hybridoma supernatant, captured by anti-mouse IgG Fc sensor) VH: EVQLVESGGGLVQPGGSLRLSCAASGFTFSSYWMSWVRQAPGQGLEWVANINEDGNEKYHVDSVKGRLTISRDNAKNSLYLQMNSLRGVDTAVYFCAREGGQWLALDYWGQGALVTVSS VL: DIQMTQSPSSVSASVGDRVSITCRASQGISSWLAWYQQKPGKAPKLLIYGASGLQSGVPSRFSGSGSGTDFTLTISSLQPEDFATYYCQQANSFPWTFGQGTKVEIK
kon / M⁻¹ s⁻¹: 290000

BINDER: 75110_14P05A (antibody, V domains shown, Tested as non-clonal AlivaMab Mouse Kappa hybridoma supernatant, captured by anti-mouse IgG Fc sensor) VH: EVQLVESGGGLVQPGGSLRLSCAASGFTFSSYDVHWVRQATGKGLEWVSTIGTAGDTYYPGSVKGRFTISRENAKNSLYLQMNSLRAGDTAVYYCARGGFYYYGMDVWGQGTTVTVSS VL: EIVLTQSPGTLSLSPGERATLSCRASQSVSSSYLAWYQQKPGQTPRLLIYGASSRATGIPDRFSGSGSGTDFTLTISRLEPEDFAVFYCQQSGSSPFTFGPGTKVDVK
kon / M⁻¹ s⁻¹: 150000

Recorded result, 75110_03L12A (antibody, V domains shown, Tested as non-clonal AlivaMab Mouse Kappa hybridoma supernatant, captured by anti-mouse IgG Fc sensor) VH: QVQLQQWGAGLLKPSETLSLTCAVYGGSFSGYYWSWIRQPPGKGLEWIGEINHSGSTNYNPSLKSRVTISVDTSENQFSLTLISVTAADTAVYYCVRLINWFDPWGQGTLVTVSS VL: DIQMTQSPSSVSASVGDRVTITCRASQDISNWLAWYQQKPGKAPKLLIFAASSLQSGVPSRFSGSGSGTDFTLTISSLQPDDFATYYCQQANSFPYTFGQGTNLGIK , kon: 170000

Recorded result, 75110_12H17A (antibody, V domains shown, Tested as non-clonal AlivaMab Mouse Kappa hybridoma supernatant, captured by anti-mouse IgG Fc sensor) VH: EVQLVESGGGLVQPGGSLRLSCAASGFTFSDYWMSWVRQAPGKGLEWVANIKEDGNEKYYVDSVKGRFTISRDNAKNSLFLQMNSLRAEDTAVYYCAREGGQWLALDYWGQGALVTVSS VL: DIQMTQSPSSVSASVGDRVTITCRASQGISSWLAWYQQKPGKAPKFLISGASSLQSGVPSRFTGSGSGTDFTLTISSLQPEDFATYYCQQANSFPWTFGQGTKVEIK , kon: 330000

Recorded result, 75110_12K21A (antibody, V domains shown, Tested as non-clonal AlivaMab Mouse Kappa hybridoma supernatant, captured by anti-mouse IgG Fc sensor) VH: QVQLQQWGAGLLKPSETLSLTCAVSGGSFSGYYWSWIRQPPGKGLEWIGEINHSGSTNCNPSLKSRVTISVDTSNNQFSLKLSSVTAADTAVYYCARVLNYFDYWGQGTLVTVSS VL: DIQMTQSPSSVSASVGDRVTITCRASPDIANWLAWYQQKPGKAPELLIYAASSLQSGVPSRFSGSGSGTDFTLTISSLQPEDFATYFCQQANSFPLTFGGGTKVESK , kon: 200000

Recorded result, 75110_06D16A (antibody, V domains shown, Tested as non-clonal AlivaMab Mouse Kappa hybridoma supernatant, captured by anti-mouse IgG Fc sensor) VH: QVQLQQWGAGLLKPSETLSLTCAVYGGSFSGYYWSWIRQPPGKGLEWIGEINHSGSTNYNPSLKSRVTISVVTSKNQFSLKLSSVTAADTAVYYCARVLNWFDPWGQGTLVTVSS VL: DIQMTQSPSSVSASVGDRVTITCRASQDIADWLAWYQQKPGKAPKLLIYAASSFQSGVPSRFSGSGSGTDFTLTISSLQPEDFATYFCQQANSFPYTFGQGTKLEIK , kon: 190000

Recorded result, 75110_13P22A (antibody, V domains shown, Tested as non-clonal AlivaMab Mouse Kappa hybridoma supernatant, captured by anti-mouse IgG Fc sensor) VH: QVQLQQWGAGLLKPSETLSLTCAAYGGSFSGYYWSWIRQSPGKGLEWIGEINQSGNTNYNPSLKSRVTISADTSKNQFSLKLSSVTAADTAVYYCARVLNWFDYWGQGILVTVSS VL: DIQMTQSPSSVSASVGDRVTITCRASQGISDWLAWYQQKSGKAPDLLIFAASSLQSGVPSRFSGSGSGTDFTLTISSLQPEDFATYYCQQANSFPYTFGQGTKLEIK , kon: 190000

Recorded result, 75110_02E08A (antibody, V domains shown, Tested as non-clonal AlivaMab Mouse Kappa hybridoma supernatant, captured by anti-mouse IgG Fc sensor) VH: QVQLQESGPGLVKPSETLSLTCTVSGGSISTYYWTWIRQPAGKGLEWIGRVYTSGDTNYNPSLKSRVAMSLDTSKNQFSLKLSSVTAADTAVYYCARDSGALYSWNYGDAFDIWGQGTMVTVSS VL: DIQMTQSPSAMSASVGDRVTITCRASQDISNYLAWFQQKPGKVPKRLIYAASSLQSGVPSRFSGSGSGTEFTLTISSLQPEDFATYYCLQHNSYPRTFGQGTKVEIK , kon: 330000

Recorded result, 75110_11D03A (antibody, V domains shown, Tested as non-clonal AlivaMab Mouse Kappa hybridoma supernatant, captured by anti-mouse IgG Fc sensor) VH: EVQLVESGGGLVQPGGSLRLSCAASGFTFSSYWMSWVRQAPGKGLEWVANINQDGNEKYYVDSVKGRFTISRDNAKNSLFLQMNSLRAEDTAVYYCAREGGQWLALDYWGQGALVTVSS VL: DIQMTQSPSSVSASVGDRVTITCRASQGISSWLAWYQQKPGKAPKFLISGASSLQSGVPSRFSGSGSGTDFTLTISSLQPEDFATYYCQQANSFPWTFGQGTKVEIK , kon: 112000

Cited source for all entries: patent US20220112288A1
